- Test system: OV90
- Test name: drug sensitivity score (DSS) from 5-point dose-response viability curve (DSS (area-under-curve based score)); higher = more sensitive (stronger growth inhibition or killing); extreme values may be limits of the assay
- Assay setup: exposure time: 72 h; concentration range: 5 concentrations over 10,000-fold range
# drug sensitivity score >= 1 gives criterion met, anything below gives criterion not met

Molecule	Tested system	Class assignment
CC[C@H](Nc1ncnc2[nH]cnc12)c1nc2cccc(F)c2c(=O)n1-c1ccccc1 [Idelalisib]	OV90	criterion not met

[ask] Is drug sensitivity score for CC(=O)N(O)CCCCCNC(=O)CCC(=O)N(O)CCCCCNC(=O)CCC(=O)N(O)CCCCCN [Deferoxamine] at or above 1?
[reply] criterion met

###

- Test system: JHOS2
- Test name: drug sensitivity score (DSS) from 5-point dose-response viability curve (DSS (area-under-curve based score)); higher = more sensitive (stronger growth inhibition or killing); extreme values may be limits of the assay
- Assay setup: exposure time: 72 h; concentration range: 5 concentrations over 10,000-fold range
# drug sensitivity score >= 4 gives Yes, anything below gives No

A selection of reference data follows.
Structure smiles	Class assignment
Cc1ccc(NS(=O)(=O)c2cccc(C#N)c2)c2[nH]cc(C#N)c12	Yes
CN(C)C1CCN(C(=O)c2ccc(NC(=O)Nc3ccc(-c4nc(N5CCOCC5)nc(N5CCOCC5)n4)cc3)cc2)CC1	Yes
NC(=S)N/N=C/c1ncccc1N	No
CS(=O)(=O)N1CCN(Cc2cc3nc(-c4cccc5[nH]ncc45)nc(N4CCOCC4)c3s2)CC1	No
CNS(=O)(=O)Nc1nccc(Cc2c(C)c3ccc(Oc4ncccn4)cc3oc2=O)c1F	No

[ask] Is drug sensitivity score for CC(C)NC[C@@H](C(=O)N1CCN(c2ncnc3c2[C@H](C)C[C@H]3O)CC1)c1ccc(Cl)cc1 at or above 4?
[reply] No

[ask] Is drug sensitivity score for O=C1c2c(O)ccc(O)c2C(=O)c2c(NCCNCCO)ccc(NCCNCCO)c21 at or above 4?
[reply] Yes

[ask] Is drug sensitivity score for O=c1ncn2nc(Sc3ccc(F)cc3F)ccc2c1-c1c(Cl)cccc1Cl at or above 4?
[reply] No

[ask] Is drug sensitivity score for O=c1[nH]c(=O)n([C@H]2C[C@H](O)[C@@H](CO)O2)cc1F at or above 4?
[reply] No

###

- System: OV90
- Test name: drug sensitivity score (DSS) from 5-point dose-response viability curve (DSS (area-under-curve based score)); higher = more sensitive (stronger growth inhibition or killing); extreme values may be limits of the assay
- Assay setup: exposure time: 72 h; concentration range: 5 concentrations over 10,000-fold range
Overview of reported drug sensitivity score across a group of compounds:
Keep it simple and answer with nothing but the number.

Compound	drug sensitivity score
CC1=C2C[C@H]3[C@@H](CC[C@@H]4C[C@H](NS(C)(=O)=O)CC[C@@]43C)[C@@H]2CC[C@@]2(C1)O[C@@H]1C[C@H](C)CN[C@H]1[C@H]2C [Saridegib]	0
Cn1cc(-c2ccc(F)c(C(F)(F)F)c2)nc1C1CCN(c2ncnc3[nH]ncc23)CC1	0
C[C@H](Nc1ncnc2nc[nH]c12)c1cc2cccc(Cl)c2c(=O)n1-c1ccccc1 [Duvelisib]	0
CN(C)Cc1ccc(S(=O)(=O)n2ccc(/C=C/C(=O)NO)c2)cc1 [Resminostat]	9.7
CC(C)c1cc(-c2n[nH]c(=O)n2-c2ccc3c(ccn3C)c2)c(O)cc1O [Ganetespib]	15.3

[ask] // map Cc1[nH]c2ccccc2c1CCNCc1ccc(/C=C/C(=O)NO)cc1 [Panobinostat] to recorded drug sensitivity score (system: OV90)
[reply] 18.2

[ask] // map C[C@H]1C[C@@H](n2c(Nc3ccc(OC(F)(F)F)cc3)nc3cc(CCC(=O)O)ccc32)CC(C)(C)C1 to recorded drug sensitivity score (system: OV90)
[reply] 0

Reference for the values: the supplement of paper PMC11616607
